Recorded Ki values for a group of compounds are listed next.
Biological target: GABA-A receptor
Assay: Radioligand binding at the GABA-A receptor
Set-up: species or system rat
Details: mean of two-three independent experiments; read-out: GABA-A Ki ± SEM
Answer with the value and then the unit.

If you can, please state the reported Ki value of `Cc1ccc2nc(-c3ccc(F)cc3)c(CC(=O)N3CCN(C(C)C)CC3)n2c1` .
5.23 µM

If you can, please state the reported Ki value of `Cc1ccc2nc(-c3ccc(F)cc3)c(CC(=O)N3CCN(C4CC4)CC3)n2c1` .
1.34 µM

If you can, please state the reported Ki value of Cc1ccc2nc(-c3ccc(F)cc3)c(CC(=O)N3CC4CCCCC4C3)n2c1 (stereo not shown) .
0.517 µM

If you can, please state the reported Ki value of `Cc1ccc2nc(-c3ccc(F)cc3)c(CC(=O)N3CCN(C)CC3)n2c1` .
0.278 µM

If you can, please state the reported Ki value of Cc1ccc(-c2nc3ccc(C)cn3c2CC(=O)N(C)C)cc1 [zolpidem, reference compound] .
0.0378 µM

If you can, please state the reported Ki value of `Cc1ccc2nc(-c3ccc(F)cc3)c(CC(=O)N3CCC(C)CC3)n2c1` .
0.204 µM

If you can, please state the reported Ki value of CN1C(=O)CN=C(c2ccccc2)c2cc(Cl)ccc21 [diazepam, reference compound] .
0.0056 µM

If you can, please state the reported Ki value of `Cc1ccc2nc(-c3ccc(F)cc3)c(CC(=O)N3CCCCCC3)n2c1` .
0.453 µM

If you can, please state the reported Ki value of `Cc1ccc2nc(-c3ccc(F)cc3)c(CC(=O)N3CCN(CC(C)C)CC3)n2c1` .
3.33 µM

If you can, please state the reported Ki value of `Cc1ccc2nc(-c3ccc(F)cc3)c(CC(=O)N3CCN(C(C)(C)C)CC3)n2c1` .
7.82 µM

====

Test: Metabolic stability in mouse liver microsomes
Type: in vitro ADME
Details: mouse, liver microsomes, pH 7.4; read-out: Clint MLMs
measured quantity: microsomal CLint

If you can, please state the reported microsomal CLint value of Cc1ccc2nc(-c3ccc(F)cc3)c(CC(=O)N3CC(C)NC(C)C3)n2c1 (stereo not shown) .
< 40 µL/min/mg

====

Assay: Metabolic stability in human liver microsomes
Assay type: in vitro ADME
Details: human, liver microsomes, pH 7.4; after 15 min of biotransformation; read-out: % remaining of the parent compound HLMs
measured quantity: remaining at 0.25 h (%)
Write down the numeric answer in % and omit the unit.

If you can, please state the reported remaining at 0.25 h value of Cc1ccc2nc(-c3ccc(F)cc3)c(CC(=O)N3CC(C)NC(C)C3)n2c1 (stereo not shown) [Compound 6] .
74

====

Tested on: P-glycoprotein (P-gp, MDR1)
Test: A–B and B–A permeability assay in MDR1-MDCKII cell line
Settings: dog, MDCK-MDR1, pH 7.4
Description: The A–B and B–A permeability assay using the MDR1-MDCKII cell line was conducted at Eurofins Discovery according to a well-established protocol.
measured quantity: Papp B→A at 10 μM (×10⁻⁶ cm/s)
Write down the numeric answer in ×10⁻⁶ cm/s and omit the unit.

If you can, please state the reported Papp B→A at 10 μM value of Cc1ccc2nc(-c3ccc(F)cc3)c(CC(=O)N3CC(C)NC(C)C3)n2c1 (stereo not shown) .
24.6
